Cited source: ChEMBL document CHEMBL5058577

Can you tell me Population Healthy Nuclei (%) for the items I'm about to list?
System: Fibroblast
method_notes: Multiplex assay against human fibroblast
Type: toxicity, cell-based
experimental_parameters: 24 h, 1 µM, compound concentration 1 uM, replicate 2
Numbers only, in %.

Worked examples follow.
CCCCC1=NC2(CCCC2)C(=O)N1Cc1ccc(-c2ccccc2-c2nnn[nH]2)cc1
57
CCCCCC(O)/C=C/[C@H]1C(=O)CC(O)C1C/C=C\CCCC(=O)O (some centres undefined)
50
Cl.N=C(N)NC(=O)Cc1c(Cl)cccc1Cl [GUANFACINE HYDROCHLORIDE]
46
COc1cccc2c1c(NS(=O)(=O)c1ccc(Cl)s1)nn2Cc1cccc(CNC(=O)C(C)(C)O)c1
49
O=C1[C@H](Cc2ccc(O)cc2)N2C(=O)CCN(C(=O)NCc3ccccc3)[C@H]2CN1Cc1cccc2ccccc12
47
N#Cc1c(Oc2cccc(OS(=O)(=O)CCCC(F)(F)F)c2)cccc1C(F)(F)F
50

Hey, can you go through the list below and give me Population Healthy Nuclei (%) for every item?
1. CN(C)C(=O)Cn1cc(-c2ccc(-c3cncc4ccccc34)cc2)cn1
2. O=C(CCCc1ccccc1)Nc1nc2ccccc2c(=O)s1

Response line:
[38, 51]

Prompt line: Look up Population Healthy Nuclei (%) for this compound: C[C@H](N)COC(=O)[C@@H](CCCCN)NC(=O)Cc1c(-c2ccc3ccccc3c2)[nH]c2c1ccc1ccccc12
Response line: 54

###

Test system: Fibroblast
method_notes: Multiplex assay against human fibroblast
Assay type: toxicity, cell-based
experimental_parameters: 24 h, 1 µM, compound concentration 1 uM, replicate 2
outcome_measure: Population Pyknosed Nuclei (%)
Numbers only, in %.

Here is how some compounds turned out for Population Pyknosed Nuclei (%).
Cc1cccc(NC(=O)CN2CCC(c3ccccn3)CC2)c1.Cl.Cl
19
CCCCC(=O)N(Cc1ccc(-c2ccccc2-c2nnn[nH]2)cc1)[C@H](C(=O)O)C(C)C
25
Cl.NCCc1ccc(O)c(O)c1 [DOPAMINE HYDROCHLORIDE]
18
CN[C@@H](C)C(=O)N[C@H](C(=O)N1CCC[C@H]1C(=O)Nc1snnc1-c1ccccc1)C1CCCCC1 [GDC-0152]
22
N#Cc1cc(F)cc(-c2nc(-c3ccc(F)cn3)no2)c1
22

Please state, for each entry, its recorded Population Pyknosed Nuclei (%).
1. Cc1cnc(-c2cc(N3CCN(C(=O)CCS(C)(=O)=O)CC3)ncc2Cl)c(C)c1
2. COC[C@@H](c1ccc(C(F)(F)F)cc1)N1CCN(C2(C)CCN(C(=O)c3c(C)ncnc3C)CC2)C[C@@H]1C.O=C(O)/C=C\C(=O)O [VICRIVIROC MALEATE]
3. CC(C)c1noc(N2CCC(COc3ccc(-c4ccc(S(C)(=O)=O)cc4)nc3)CC2)n1 [GSK-1292263]
4. Cl.N=C(N)NC(=O)Cc1c(Cl)cccc1Cl [GUANFACINE HYDROCHLORIDE]
5. N#Cc1c(Oc2cccc(OS(=O)(=O)CCCC(F)(F)F)c2)cccc1C(F)(F)F
6. CCc1cc2cc(NS(=O)(=O)c3ccc(C#N)cc3)ccc2n(CC)c1=O

Response line:
[25, 21, 25, 30, 16, 25]

###

System: U2OS
method_notes: Multiplex assay against U2OS
Format: toxicity, cell-based
experimental_parameters: human, 24 h, 10 µM, compound concentration 10 uM, replicate 1
outcome_measure: Population Normal (%)
Write down the value, and be sure its unit follows.

The following molecules have reported results that may help.
NCCc1cn(S(=O)(=O)c2c(Cl)nc3sccn23)c2ccccc12.O=C(O)C(=O)O
93%
CC[C@@H](C)Nc1nc(C)nc2c(-c3ccc(OC)nc3C)c(C)nn12
97%
C[C@H](N)COC(=O)[C@@H](CCCCN)NC(=O)Cc1c(-c2ccc3ccccc3c2)[nH]c2c1ccc1ccccc12
97%

Look up Population Normal (%) for the entries below, preserving their order.
1. Cc1cccc(NC(=O)CN2CCC(c3ccccn3)CC2)c1.Cl.Cl
2. O=C(CCCc1ccccc1)Nc1nc2ccccc2c(=O)s1
3. Cc1noc(-c2ccc(-c3ccc(CC(=O)O)cc3)cc2)c1NC(=O)O[C@H](C)c1ccccc1Cl
4. COc1ccccc1N1CCN(C[C@@H](C(=O)NC(C)(C)C)c2ccccc2)CC1.Cl.Cl
5. Cc1c(CC(=O)O)c2cccnc2n1Cc1ccc(S(C)(=O)=O)cc1C(F)(F)F
6. CCCCCC(O)/C=C/[C@H]1C(=O)CC(O)C1C/C=C\CCCC(=O)O (some centres undefined)

Response line:
96%
97%
98%
94%
99%
98%
